Target under test: Avi-humanTEAD4 217-434 / Cy5 labeled humanYAP 60-100 (Homo sapiens (Human))
Experiment summary: TR-FRET YAP-TEAD4 in-vitro biochemical assay
Type: binding
Measurement context: 1 nM Avi-humanTEAD4 217-434, 20 nM Cy5-humanYAP 60-100, 1 h room temperature
Value type: IC50 (nM)

[a] NCC1(c2ccccc2)Oc2ccc(Cl)c(-c3c(F)cccc3C(N)=O)c2O1 (single isomer, unassigned) [Example 133]
[b] COc1ccc(C(N)=O)c(-c2c(Cl)ccc3c2[C@H](O)[C@@](CN[C@H]2CC[C@H](O)CC2)(c2ccccn2)O3)c1F (relative stereo) [Example 95a]
[c] CNC(=O)c1ccc(OC[C@H](C)O)c(F)c1-c1c(Cl)c(F)cc2c1[C@H](C)[C@](c1ccccc1)(C1CCN1)O2 (stereo partly drawn) [Example 150]
Sort the listed compounds above so the one with the largest IC50 comes first and the smallest comes last. Ranked list of labels, please, in the requested order. a, b, c

* * *

Target under test: Avi-humanTEAD4 217-434 / Cy5 labeled humanYAP 60-100 (Homo sapiens (Human), UniProt Q15561)
Sequence (Q15561 217-434): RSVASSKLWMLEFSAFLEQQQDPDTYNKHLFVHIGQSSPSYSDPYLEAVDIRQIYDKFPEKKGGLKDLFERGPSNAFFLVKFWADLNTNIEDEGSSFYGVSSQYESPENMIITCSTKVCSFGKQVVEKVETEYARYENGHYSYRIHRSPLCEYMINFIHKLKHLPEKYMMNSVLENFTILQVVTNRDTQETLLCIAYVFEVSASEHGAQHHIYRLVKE
Experiment summary: TR-FRET YAP-TEAD4 in-vitro biochemical assay
Measurement context: 1 nM Avi-humanTEAD4 217-434, 20 nM Cy5-humanYAP 60-100, 1 h room temperature
pIC50: −log10 of the molar value.
Value type: pIC50

- Compound: "CO[C@H]1c2c(cc(F)c(Cl)c2-c2c(C(N)=O)ccc(OC(F)F)c2F)O[C@]1(CN[C@H]1CC[C@@H](O)CC1)c1ccccc1 (relative stereo) [Example 102b]"
  pIC50: 8.40

[I] C[C@H]1c2c(cc(F)c(Cl)c2-c2c(C(N)=O)ccc(OCC(C)(C)O)c2F)O[C@]1(CN[C@H]1CC[C@](C)(O)CC1)c1ccccc1 (atropisomer, axis not shown) [Example 148]
[II] COc1ccc(C(N)=O)c(-c2c(Cl)ccc3c2C[C@@](CN)(c2ccccc2)O3)c1F (single isomer, unassigned) [Example 5b]
[III] NC(=O)c1ccc(OC(F)F)c(F)c1-c1c(Cl)ccc2c1C[C@@](CNC1CCCCC1)(c1ccccc1)O2 (atropisomer, axis not shown) [Example 135]
[IV] CS(=O)(=O)COc1ccc(C(N)=O)c(-c2c(Cl)c(F)cc3c2C[C@@](CN)(c2ccccc2)O3)c1F (atropisomer, axis not shown) [Example 40]
Sort the compounds on pIC50; start with the lowest figure. Answer format: list of labels, ordered as asked. II, IV, III, I

* * *

Target under test: Avi-humanTEAD4 217-434 / Cy5 labeled humanYAP 60-100 (Homo sapiens (Human))
Experiment summary: TR-FRET YAP-TEAD4 in-vitro biochemical assay
Assay type: binding
Measurement context: 1 nM Avi-humanTEAD4 217-434, 20 nM Cy5-humanYAP 60-100, 1 h room temperature
Value type: IC50 (nM)

- Molecule: "Fc1cc2c(c(-c3ccccc3)c1Cl)C[C@](c1ccccc1)(C1COCCN1)O2 (single isomer, unassigned) [Example 162]"
  IC50 [nM]: 1520
- Molecule: "CNC(=O)c1ccc(OC)c(F)c1-c1c(Cl)ccc2c1C[C@@](CN)(c1ccccc1)O2 (atropisomer, axis not shown) [Example 22]"
  IC50 [nM]: 9
- Molecule: "CNC(=O)c1ccc(OCCO)c(F)c1-c1c(Cl)c(F)cc2c1C[C@](c1ccccc1)(C1CCN1)O2 (stereo partly drawn) [Example 149]"
  IC50 [nM]: 5

[P] NC(=O)c1ccc(OC(F)F)c(F)c1-c1c(Cl)ccc2c1[C@H](O)[C@@](CN[C@H]1CC[C@H](O)CC1)(c1ccccc1)O2 (relative stereo) [Example 94a]
[Q] C[C@]1(O)CC[C@@H](NC[C@@]2(c3ccccc3)Cc3c(cc(F)c(Cl)c3-c3c(C(N)=O)ccc(-n4ccnc4)c3F)O2)CC1 (atropisomer, axis not shown) [Example 69b]
Param pair: P , Q . Output: the one whose IC50 is numerically greater. Write the label of whichever entry you select. Q

[1] NC[C@@]1(c2ccccc2)Cc2c(ccc(Cl)c2-c2c(F)cccc2C(N)=O)O1 (atropisomer, axis not shown) [Example 4a-1]
[2] COc1ccc(C(N)=O)c(-c2c(Cl)ccc3c2C[C@@](CN[C@H]2CC[C@@H](C(=O)O)CC2)(c2ccccc2)O3)c1F (relative stereo) [Example 28b]
Of 1 and 2 , which one carries the higher reported IC50? Respond using the label that marks the chosen record. 1

[P] NC[C@]1(c2ccccc2)Oc2ccc(Cl)c(-c3c(C(N)=O)ccc(OC(F)F)c3F)c2[C@@H]1O (atropisomer, axis not shown) [Example 87]
[Q] C[C@@H]1C[C@H](NC[C@@]2(c3ccccc3)Cc3c(cc(F)c(Cl)c3-c3c(C(N)=O)ccc(OCCO)c3F)O2)C[C@H](C)O1 (atropisomer, axis not shown) [Example 65a]
Lab note: check whether P or Q has the lower measured IC50. Response format: the label of the selected entry. Q

* * *

System: MKN-45/Ubc-luc cells
Experiment summary: Reporter gene specificity control (Ubc-luciferase), MKN-45
Measurement context: Homo sapiens, MKN-45, 24 h, read-out: Reporter gene assay MKN-45 IC50 [μM], MKN-45/Ubc-luc cells (YAP deleted, specificity control), 24 hours incubation
Measured IC50 of individual entries

Reference set (3 entries):
- Compound: "C[C@H](O)COc1ccc(C(N)=O)c(-c2c(Cl)c(F)cc3c2C[C@](c2ccccc2)(C2CC(C)(O)CN2)O3)c1F (stereo partly drawn)"
  IC50: "> 15 µM"
- Compound: "NC(=O)c1ccc(OC(F)F)c(F)c1-c1c(Cl)c(F)cc2c1C[C@@](CN[C@H]1CC[C@H](O)CC1)(c1ccccc1)O2 (atropisomer, axis not shown)"
  IC50: "9.8 µM"
- Compound: "COc1ccc(C(N)=O)c(-c2c(Cl)ccc3c2[C@H](O)[C@@](CN)(c2ccccn2)O3)c1F (atropisomer, axis not shown)"
  IC50: "> 10 µM"

Note IC50 for the compound shown: NC(=O)c1ccc(OC(F)F)c(F)c1-c1c(Cl)c(F)cc2c1C[C@@](CN[C@H]1CC[C@@H](O)[C@H](F)C1)(c1ccccc1)O2 (atropisomer, axis not shown) [Example 81a] > 10 µM

Look up and state reported IC50 for NC[C@@]1(c2ccccc2)Cc2c(cc(F)c(Cl)c2-c2c(F)cccc2C(N)=O)N1 (atropisomer, axis not shown) > 10 µM

Specify measured IC50 for CO[C@H]1c2c(cc(F)c(Cl)c2-c2c(C(N)=O)ccc(OCCO)c2F)O[C@@]1(c1ccccc1)C1CCCN1 (stereo partly drawn) . > 10 µM

* * *

Listed next: entries and their corresponding IC50.
Test system: MKN-45/Ubc-luc cells
Experiment summary: Reporter gene specificity control (Ubc-luciferase), MKN-45
Measurement context: Homo sapiens, MKN-45, 24 h, read-out: Reporter gene assay MKN-45 IC50 [μM], MKN-45/Ubc-luc cells (YAP deleted, specificity control), 24 hours incubation

// below: answered molecules
- Molecule: "C[C@H](O)COc1ccc(C(N)=O)c(-c2c(Cl)c(F)cc3c2[C@H](C)[C@@](CN)(c2ccccc2)O3)c1F (atropisomer, axis not shown) [Example 123]"
  IC50: "> 10 µM"
- Molecule: "CNC[C@]1(c2ccccc2)Oc2cc(F)c(Cl)c(-c3c(C(N)=O)ccc(OC)c3F)c2[C@@H]1COC (atropisomer, axis not shown) [Example 146]"
  IC50: "> 10 µM"
- Molecule: "COc1ccc(C(N)=O)c(-c2c(Cl)ccc3c2[C@H](O)[C@@](CN)(c2ccccc2)O3)c1F (atropisomer, axis not shown) [Example 86]"
  IC50: "> 10 µM"
- Molecule: "NC[C@@]1(c2ccccc2)Cc2c(cc(F)c(Cl)c2-c2c(F)cccc2C(N)=O)O1 [Example 32a]"
  IC50: "> 10 µM"
- Molecule: "NC[C@@]1(c2ccccc2)Cc2c(ccc(Cl)c2-c2c(F)cccc2C(N)=O)O1 (atropisomer, axis not shown) [Example 4a-1]"
  IC50: "> 10 µM"
- Molecule: "COc1ccc(C(N)=O)c(-c2c(Cl)c(F)cc3c2[C@H](O)[C@@](CN)(c2ccccc2)O3)c1F (atropisomer, axis not shown) [Example 97]"
  IC50: "> 10 µM"

Consider the molecule COc1cccc([C@@]2(CN)Oc3ccc(Cl)c(-c4c(C(N)=O)ccc(OC(F)F)c4F)c3[C@@H]2O)n1 (atropisomer, axis not shown) [Example 90] and give its recorded IC50. > 10 µM

Find the measured IC50 of Fc1cc2c(c(-c3ccccc3)c1Cl)C[C@](c1ccccc1)(C1COCCN1)O2 (single isomer, unassigned) [Example 162] and report it. > 10 µM

Indicate the recorded IC50 value for this molecule: CNC[C@]1(c2ccccc2)Oc2cc(F)c(Cl)c(-c3c(C(N)=O)ccc(OC)c3F)c2[C@@H]1C (atropisomer, axis not shown) [Example 144] > 8 µM

* * *

Tested on: MKN-45/Ubc-luc cells
Experiment summary: Reporter gene specificity control (Ubc-luciferase), MKN-45
Measurement context: Homo sapiens, MKN-45, 24 h, read-out: Reporter gene assay MKN-45 IC50 [μM], MKN-45/Ubc-luc cells (YAP deleted, specificity control), 24 hours incubation
Value type: IC50

Return reported IC50. Input molecule: CNC[C@@]1(c2ccccc2)Cc2c(cc(F)c(Cl)c2-c2c(C(=O)NC)ccc(OCCO)c2F)O1 (atropisomer, axis not shown) > 10 µM

Determine from records and report IC50 for COc1ccc(C(N)=O)c(-c2c(Cl)c(F)cc3c2[C@H](C)[C@@](CN)(c2ccccn2)O3)c1F (atropisomer, axis not shown) > 10 µM

Name the recorded IC50 of the item COc1ccc(C(=O)Nc2cccnc2)c(-c2c(Cl)ccc3c2C[C@@](CN)(c2ccccc2)O3)c1F (atropisomer, axis not shown) in your answer. > 10 µM
